Reference source: a collection of fitness landscapes (doi:10.1126/science.1257360)

# Lookup of reported enrichment ratio keyed by entry
B1: PhoQ; a variant is named by its letters at X, in order, P23837 (parent)
chain: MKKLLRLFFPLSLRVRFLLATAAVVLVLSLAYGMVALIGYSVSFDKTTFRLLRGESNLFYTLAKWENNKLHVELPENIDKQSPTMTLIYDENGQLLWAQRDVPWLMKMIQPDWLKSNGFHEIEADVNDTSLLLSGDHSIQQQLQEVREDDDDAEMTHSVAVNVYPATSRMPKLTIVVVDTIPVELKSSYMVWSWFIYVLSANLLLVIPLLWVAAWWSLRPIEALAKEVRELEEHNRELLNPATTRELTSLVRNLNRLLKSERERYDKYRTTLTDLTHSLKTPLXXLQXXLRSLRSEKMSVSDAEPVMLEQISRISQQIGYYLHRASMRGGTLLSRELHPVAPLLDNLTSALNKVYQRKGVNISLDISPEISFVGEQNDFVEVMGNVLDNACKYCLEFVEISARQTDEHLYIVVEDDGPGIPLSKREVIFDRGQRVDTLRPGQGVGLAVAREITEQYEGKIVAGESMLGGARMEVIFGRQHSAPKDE

Variants of: B1
Assay: enrichment ratio after two sorts for PhoP signalling (ratio (wild type AVST 3.29)); higher = more functional
Conditions: with PhoP (E. coli)
The full ranking holds about 140,000 sequences; the median of “enrichment ratio after two sorts for PhoP signalling” is about 0, and the highest 2% start at about 11. The entries come from a sample that favours the highest values as a whole.

Record `PKCK` , field enrichment ratio: ≤ 0.25

Record `AMWM` , field enrichment ratio: ≤ 0.25

Record `ANSR` , field enrichment ratio: ≤ 0.25

Record `MAYE` , field enrichment ratio: 33.3

Record `KYAF` , field enrichment ratio: ≤ 0.25

Record `VEGN` , field enrichment ratio: ≤ 0.25

Record `RFAC` , field enrichment ratio: ≤ 0.25

Record `WPCQ` , field enrichment ratio: ≤ 0.25

---
Record `GPST` , field enrichment ratio: ≤ 0.25

Record `LVLT` , field enrichment ratio: ≤ 0.25

Record `AHSS` , field enrichment ratio: ≤ 0.25
